Tested on: ATP phosphoribosyltransferase (HisG)
Experiment: Measurement of activities of ATP phosphoribosyltransferases (UV 290 nm, cell supernatant)
Assay type: biochemical, Corynebacterium glutamicum
Conditions: 30° C., UV 290 nm, no L-histidine
Lab note - cut at 0.4 U/mg for Activity of ATP phosphoribosyltransferase (HisG): Fulfilled if strictly below, Not fulfilled if not.

| Molecule | Category |
| --- | --- |
| HisG: wild-type Corynebacterium glutamicum ATP phosphoribosyltransferase, SEQ ID NO: 13 (protein, HisG) MLKIAVPNKGSLSERAMEILAEAGYAGRGDSKSLNVFDEANNVEFFFLRPKDIAIYVAGGQLDLGITGRDLARDSQADVHEVLSLGFGSSTFRYAAPADEEWSIEKLDGKRIATSYPNLVRDDLAARGLSAEVLRLDGAVEVSIKLGVADAIADVVSTGRTLRQQGLAPFGEVLCTSEAVIVGRKDEKVTPEQQILLRRIQGILHAQNFLMLDYNVDRDNLDAATAVTPGLSGPTVSPLARDNWVAVRAMVPRRSANAIMDKLAGLGAEAILASEIRIARI | Fulfilled |
| HisG (N215K/L231F/T235A): known HisG variant N215K/L231F/T235A (Biochimie. 2012 March; 94(3):829-38) (protein) MLKIAVPNKGSLSERAMEILAEAGYAGRGDSKSLNVFDEANNVEFFFLRPKDIAIYVAGGQLDLGITGRDLARDSQADVHEVLSLGFGSSTFRYAAPADEEWSIEKLDGKRIATSYPNLVRDDLAARGLSAEVLRLDGAVEVSIKLGVADAIADVVSTGRTLRQQGLAPFGEVLCTSEAVIVGRKDEKVTPEQQILLRRIQGILHAQNFLMLDYKVDRDNLDAATAVTPGFSGPAVSPLARDNWVAVRAMVPRRSANAIMDKLAGLGAEAILASEIRIARI | Fulfilled |
| HisG (N215R/G233H/T235Q): ATP phosphoribosyltransferase variant N215R/G233H/T235Q, SEQ ID NO: 1 (protein, HisG) MLKIAVPNKGSLSERAMEILAEAGYAGRGDSKSLNVFDEANNVEFFFLRPKDIAIYVAGGQLDLGITGRDLARDSQADVHEVLSLGFGSSTFRYAAPADEEWSIEKLDGKRIATSYPNLVRDDLAARGLSAEVLRLDGAVEVSIKLGVADAIADVVSTGRTLRQQGLAPFGEVLCTSEAVIVGRKDEKVTPEQQILLRRIQGILHAQNFLMLDYRVDRDNLDAATAVTPGLSHPQVSPLARDNWVAVRAMVPRRSANAIMDKLAGLGAEAILASEIRIARI | Not fulfilled |
| HisG (N215R): ATP phosphoribosyltransferase variant with N215R substitution (protein) MLKIAVPNKGSLSERAMEILAEAGYAGRGDSKSLNVFDEANNVEFFFLRPKDIAIYVAGGQLDLGITGRDLARDSQADVHEVLSLGFGSSTFRYAAPADEEWSIEKLDGKRIATSYPNLVRDDLAARGLSAEVLRLDGAVEVSIKLGVADAIADVVSTGRTLRQQGLAPFGEVLCTSEAVIVGRKDEKVTPEQQILLRRIQGILHAQNFLMLDYRVDRDNLDAATAVTPGLSGPTVSPLARDNWVAVRAMVPRRSANAIMDKLAGLGAEAILASEIRIARI | Fulfilled |

Hey, just so you know, these numbers are from patent US11098333B2.
